Experiment: Quantitative highthroughput screen to assess conditional lethalithy of SEM cells grown in RPMI1640 with unreated serum (RPMI+s) (AID 1963883); note: nearly all actives have a fitted effect of over 35% in size
Conditions: SEM B-ALL cells, CellTiter-Glo viability, 48 h; series mostly up to 45.8 µM
Protocol: Assay Provider: Jason Cantor Ph.D. Department of Biochemistry University of Wisconsin-Madison, Madison, WI, USA Chemical screening studies have identified drug sensitivities across hundreds of cancer cell lines but most putative therapeutics fail to translate. […] Sets of conditional anticancer compounds spanned phases of clinical development and included non-oncology drugs were assessed. […] 6; Detection; Luminescence, Viewlux PerkinElmer. […]
Inconclusive results are not listed. Active and inactive are the calls of the source. Calls come from the whole dose curve; as a rule, active = well fitted cell-killing curve with a large enough effect; inconclusive = small, poorly fitted or top-dose-only effect, or effect the other way; inactive = no such curve, though single readings can be large or run the other way.
API: response.call in active, inactive

-- ask Called result for `CCOc1cc2ncc(C#N)c(Nc3ccc(OCc4ccccn4)c(Cl)c3)c2cc1NC(=O)C=CCN(C)C`
-- reply active

-- ask Per the records of this test, what outcome belongs to `CO[C@@H]1[C@H](N(C)C(=O)c2ccccc2)C[C@H]2O[C@]1(C)n1c3ccccc3c3c4c(c5c6ccccc6n2c5c31)C(=O)NC4` ?
-- reply active

***
-- ask Recorded test outcome, item CCN(CC)CC#CCOC(=O)C(O)(c1ccccc1)C1CCCCC1 (stereo not drawn)
-- reply inactive

-- ask Per the records of this test, what outcome belongs to `CCN1CCN(C(=O)N[C@H](C(=O)N[C@@H]2C(=O)N3C(C(=O)O)=C(CSc4nnnn4C)CS[C@@H]23)c2ccc(O)cc2)C(=O)C1=O` ?
-- reply inactive

-- ask Test call, this molecule: `O=C(Nc1cccc(Cl)c1)Nc1ncc(CCNc2ncnc3ccsc23)s1`
-- reply active

-- ask In this assay, the call recorded for `O=C1CCc2cc(OCCCCc3nnnn3C3CCCCC3)ccc2N1` was what?
-- reply inactive

-- ask Outcome? `CN(C)c1nc(Cc2ccc(NC(=O)c3ccc(C(F)(F)F)cc3)cc2)nc(N(C)C)c1CC(=O)O`
-- reply inactive

-- ask // param item: `Cc1ccc(C(=O)N(CCCN)[C@@H](c2oc3cc(Cl)ccc3c(=O)c2Cc2ccccc2)C(C)C)cc1` ; yields the recorded call
-- reply inactive

====

Experiment: Viability qHTS for spleen associated tyrosine kinase inhibitor (SYKi) naive MV4-11 cells (AID 1963823); note: nearly all actives have a fitted effect of over 40% in size
Details: MV4-11 AML viability, CellTiter-Glo luminescence, 72 h; series mostly up to 45 µM
Description: Department of Medicine, Hematology/Oncology University Hospital Frankfurt, Germany. Trials have shown promising clinical activity of the selective SYK inhibitor entospletinib in patients with high expressing HOXA9/MEIS1 acute leukemias. […] 7; Detection; Luminescence; ViewLux plate reader (PerkinElmer). […] 1. Quantitative high-throughput screening (qHTS) of small molecule compounds was conducted on naive SYKi MV4-11 cell line. […] 7. Luminescence was measured on a ViewLux plate reader (PerkinElmer).
Results filed as inconclusive are left out. Activity calls are given as the source filed them. Calls follow the shape of the dose curve; as a rule, active = well fitted cell-killing curve with a large enough effect; inconclusive = small, poorly fitted or top-dose-only effect, or effect the other way; inactive = no such curve, though single readings can be large or run the other way.
Your response should consist of one outcome taken from active, inactive

-- ask Recorded test outcome, item `CC(C)CC[C@@H](O)[C@](C)(O)[C@H]1CC[C@@]2(O)C3=CC(=O)[C@@H]4C[C@@H](O)[C@@H](O)C[C@]4(C)[C@H]3CC[C@]12C`
-- reply inactive

-- ask Which outcome did this test record for the compound `O=C(C[C@@H]1C/C=C\CCC(=O)O[C@H](c2ccccc2)CNC1=O)NCc1ccc(Cl)cc1` ?
-- reply active

-- ask What did the test return for `Cn1cc(-c2cc(Oc3cc(F)c(NC(=O)C4(C(=O)Nc5ccccc5)CC4)cc3F)ccn2)cn1` ?
-- reply active

-- ask Hi, sorry to bother you, what did the test record for C=C1CCC2C(C)(C)C(O)CCC2(C)C1CCC(C)CCO (stereo not given) ?
-- reply active

Turning now to a further compound:
-- ask Fill in: this test's call for `Cc1cc(C)c(-c2csc(NC(=O)c3ccccc3)n2)c(C)c1` is ___
-- reply active
